Source of measurements: patent EP4786492A1

- Experimental target: monkey DLL3 on CHO-K1-cyno DLL3 cells (cynomolgus monkey)
- Sequence (chain, as listed by the source limits assumed): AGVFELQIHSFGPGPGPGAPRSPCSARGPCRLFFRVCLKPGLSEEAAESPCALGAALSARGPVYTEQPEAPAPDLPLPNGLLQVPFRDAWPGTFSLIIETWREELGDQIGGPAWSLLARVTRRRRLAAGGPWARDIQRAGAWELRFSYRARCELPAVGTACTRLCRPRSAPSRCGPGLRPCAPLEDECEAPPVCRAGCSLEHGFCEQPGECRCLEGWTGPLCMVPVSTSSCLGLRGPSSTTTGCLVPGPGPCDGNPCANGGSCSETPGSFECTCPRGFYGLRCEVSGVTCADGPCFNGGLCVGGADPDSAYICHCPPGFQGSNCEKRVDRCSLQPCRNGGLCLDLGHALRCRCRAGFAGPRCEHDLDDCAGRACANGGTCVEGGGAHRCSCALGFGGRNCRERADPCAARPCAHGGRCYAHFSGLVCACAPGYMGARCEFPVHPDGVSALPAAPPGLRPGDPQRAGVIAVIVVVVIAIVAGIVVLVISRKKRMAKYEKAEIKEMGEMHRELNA
- Measurement protocol: FACS, CHO-K1-cyno DLL3 cells, 20 nM antibody
Hi there, I'd appreciate the recorded MFI for every entry that follows.
Answers are plain numbers, in MFI.

# annotated cases, reported MFI shown
[
  {
    "Binder": "Hab014VL2VH1-hFc (scFv, part only; not given: scFv linker and human IgG1 Fc, V domains shown, not shown: another chain or arm of the molecule; a dimerising Fc or GST; small tags and cut ends) VL: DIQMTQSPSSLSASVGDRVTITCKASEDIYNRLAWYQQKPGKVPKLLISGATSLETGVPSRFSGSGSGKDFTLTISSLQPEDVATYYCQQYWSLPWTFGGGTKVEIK VH: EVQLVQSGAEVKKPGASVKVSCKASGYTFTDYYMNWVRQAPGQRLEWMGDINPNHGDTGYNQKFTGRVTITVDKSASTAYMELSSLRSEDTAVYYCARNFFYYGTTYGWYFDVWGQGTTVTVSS",
    "Value": 33000
  },
  {
    "Binder": "Hab015VL4VH6a-hFc (scFv, part only; not given: scFv linker and human IgG1 Fc, V domains shown, not shown: another chain or arm of the molecule; a dimerising Fc or GST; small tags and cut ends) VL: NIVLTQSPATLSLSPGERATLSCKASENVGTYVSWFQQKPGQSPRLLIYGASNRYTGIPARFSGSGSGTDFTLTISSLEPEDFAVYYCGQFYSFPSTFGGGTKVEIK VH: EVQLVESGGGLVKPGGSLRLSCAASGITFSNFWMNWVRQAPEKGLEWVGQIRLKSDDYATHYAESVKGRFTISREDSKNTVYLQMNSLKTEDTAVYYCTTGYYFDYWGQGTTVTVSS",
    "Value": 7330
  },
  {
    "Binder": "Hab006VL4VH2-hFc (scFv, part only; not given: scFv linker and human IgG1 Fc, V domains shown, not shown: another chain or arm of the molecule; a dimerising Fc or GST; small tags and cut ends) VL: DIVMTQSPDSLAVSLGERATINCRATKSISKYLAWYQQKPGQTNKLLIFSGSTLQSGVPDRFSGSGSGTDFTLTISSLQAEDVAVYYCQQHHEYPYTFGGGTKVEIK VH: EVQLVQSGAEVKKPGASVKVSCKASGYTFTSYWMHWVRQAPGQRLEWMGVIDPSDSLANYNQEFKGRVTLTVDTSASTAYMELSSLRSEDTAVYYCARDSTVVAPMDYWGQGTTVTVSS",
    "Value": 9180
  },
  {
    "Binder": "Hab015VL5VH1a-hFc (scFv, part only; not given: scFv linker and human IgG1 Fc, V domains shown, not shown: another chain or arm of the molecule; a dimerising Fc or GST; small tags and cut ends) VL: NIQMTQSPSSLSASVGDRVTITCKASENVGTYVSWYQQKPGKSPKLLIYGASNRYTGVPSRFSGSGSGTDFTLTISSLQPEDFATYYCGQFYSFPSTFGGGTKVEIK VH: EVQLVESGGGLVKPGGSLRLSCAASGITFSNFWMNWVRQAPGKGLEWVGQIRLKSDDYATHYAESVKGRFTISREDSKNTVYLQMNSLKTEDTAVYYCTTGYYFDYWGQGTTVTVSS",
    "Value": 7040
  }
]

stdin: Annotate the binder Hab009VL1aVH1-hFc (scFv, part only; not given: scFv linker and human IgG1 Fc, V domains shown, not shown: another chain or arm of the molecule; a dimerising Fc or GST; small tags and cut ends) VL: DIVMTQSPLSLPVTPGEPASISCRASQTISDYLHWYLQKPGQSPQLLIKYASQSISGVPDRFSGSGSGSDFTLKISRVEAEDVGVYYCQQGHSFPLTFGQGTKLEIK VH: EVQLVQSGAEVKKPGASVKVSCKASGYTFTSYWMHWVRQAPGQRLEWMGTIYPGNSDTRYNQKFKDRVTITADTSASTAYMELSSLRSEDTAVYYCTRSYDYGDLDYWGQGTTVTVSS with its measured MFI.
stdout: 27100
